Source: ChEMBL document CHEMBL3600348

target: Urease (Canavalia ensiformis); assay: Inhibition of jack bean urease using urea as substrate assessed as ammonia production after 15 mins by Weatherburn assay
pIC50: −log10 of the molar value.
Everything with pIC50 lower than 4 is NOT MET; everything else, including exactly 4, is MET.

>>> df
                              sample_smiles  qualitative_label
0  COc1ccc(/C=N/NC(=O)c2ccc(/C=C3/C(=O)Nc4ccc(Cl)cc43)cc2)c(O)c1            NOT MET
1  C/C(=N\NC(=O)c1ccc(/C=C2/C(=O)Nc3ccc(Cl)cc32)cc1)c1c(O)cc(O)cc1O                MET
2  O=C1Nc2ccc(Cl)cc2/C1=C\c1ccc(C(=O)N/N=C/c2c(O)cc(O)cc2O)cc1                MET

----------
Listed here are compounds together with their documented pIC50.
target: Urease (Canavalia ensiformis, UniProt P07374); experiment: Inhibition of jack bean urease using urea as substrate assessed as ammonia production after 15 mins by Weatherburn assay
Sequence (P07374 whole entry): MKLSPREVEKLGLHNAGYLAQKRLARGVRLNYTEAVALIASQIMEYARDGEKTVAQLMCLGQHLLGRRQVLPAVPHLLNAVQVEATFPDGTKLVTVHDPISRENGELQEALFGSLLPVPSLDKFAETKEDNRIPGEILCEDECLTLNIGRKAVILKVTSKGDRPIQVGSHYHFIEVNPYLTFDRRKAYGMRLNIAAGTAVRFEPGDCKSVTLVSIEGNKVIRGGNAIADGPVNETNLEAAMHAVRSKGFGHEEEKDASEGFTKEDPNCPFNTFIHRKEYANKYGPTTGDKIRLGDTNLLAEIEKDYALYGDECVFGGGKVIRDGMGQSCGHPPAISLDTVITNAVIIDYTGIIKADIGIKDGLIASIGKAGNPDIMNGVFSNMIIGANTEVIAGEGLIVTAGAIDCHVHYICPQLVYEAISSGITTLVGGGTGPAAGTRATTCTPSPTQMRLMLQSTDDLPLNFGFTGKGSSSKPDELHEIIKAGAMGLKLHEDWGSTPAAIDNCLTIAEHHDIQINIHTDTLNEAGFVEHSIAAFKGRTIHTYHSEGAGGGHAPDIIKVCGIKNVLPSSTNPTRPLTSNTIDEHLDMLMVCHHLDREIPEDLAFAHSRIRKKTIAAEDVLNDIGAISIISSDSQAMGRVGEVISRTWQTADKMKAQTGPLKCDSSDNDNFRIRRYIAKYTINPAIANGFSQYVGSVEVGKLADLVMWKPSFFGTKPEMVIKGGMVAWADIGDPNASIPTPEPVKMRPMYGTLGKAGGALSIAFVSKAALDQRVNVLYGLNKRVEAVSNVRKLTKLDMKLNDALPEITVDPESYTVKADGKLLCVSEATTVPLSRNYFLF
pIC50: −log10 of the molar value.
READOUT: pIC50

>>> print(df.to_string())
                                    compound  meas_value
 0  O=C1Nc2ccc(Cl)cc2/C1=C\c1ccc(C(=O)N/N=C/c2cccc([N+](=O)[O-])c2)cc1        3.83
 1  O=C1Nc2ccc(Cl)cc2/C1=C\c1ccc(C(=O)N/N=C/c2cc(O)ccc2O)cc1        4.27
 2  O=C1Nc2ccc(Cl)cc2/C1=C\c1ccc(C(=O)N/N=C/c2ccc([N+](=O)[O-])cc2)cc1        4.03
 3  O=C1Nc2ccc(Cl)cc2/C1=C\c1ccc(C(=O)N/N=C/c2cc(O)cc(O)c2)cc1        4.72
 4  O=C1Nc2ccc(Cl)cc2/C1=C\c1ccc(C(=O)N/N=C/c2cccc(O)c2O)cc1        3.96
 5  COc1ccc(O)c(/C=N/NC(=O)c2ccc(/C=C3/C(=O)Nc4ccc(Cl)cc43)cc2)c1        4.09
 6  C/C(=N\NC(=O)c1ccc(/C=C2/C(=O)Nc3ccc(Cl)cc32)cc1)c1ccccc1O        4.14
 7  O=C1Nc2ccc(Cl)cc2/C1=C\c1ccc(C(=O)N/N=C/c2cccc(O)c2)cc1        3.99
 8  O=C1Nc2ccc(Cl)cc2/C1=C\c1ccc(C(=O)N/N=C/c2ccc(O)cc2O)cc1        4.37
 9  O=C1Nc2ccc(Cl)cc2/C1=C\c1ccc(C(=O)N/N=C/c2ccccc2O)cc1        3.92
10           CC(=O)NO [ACETOHYDROXAMIC ACID]        4.38
11  O=C1Nc2ccc(Cl)cc2/C1=C\c1ccc(C(=O)N/N=C/c2ccc(O)c(O)c2)cc1        4.15
12  O=C1Nc2ccc(Cl)cc2/C1=C\c1ccc(C(=O)N/N=C/c2ccc(Cl)cc2)cc1        3.96
13  COc1ccc(/C=N/NC(=O)c2ccc(/C=C3/C(=O)Nc4ccc(Cl)cc43)cc2)cc1        3.84
